B1: Caulobacter ParB omega fusion; a variant is named by its letters at X, in order, B8GW30 (parent)
chain: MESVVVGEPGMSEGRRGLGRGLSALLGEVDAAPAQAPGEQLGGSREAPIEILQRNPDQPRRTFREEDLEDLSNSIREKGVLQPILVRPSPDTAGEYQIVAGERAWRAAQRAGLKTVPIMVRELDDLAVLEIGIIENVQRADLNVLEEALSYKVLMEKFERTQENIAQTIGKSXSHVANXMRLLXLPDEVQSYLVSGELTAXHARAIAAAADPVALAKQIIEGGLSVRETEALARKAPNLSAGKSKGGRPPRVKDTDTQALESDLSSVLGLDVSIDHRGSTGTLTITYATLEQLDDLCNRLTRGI

# Variants of: B1
# PROTOCOL: one-hybrid fitness for binding parS DNA (scaled: cognate 1, non-cognate 0); higher = stronger binding
# ASSAY SETUP: with parS DNA site
Over roughly 81,000 sequences, “one-hybrid fitness for binding parS DNA” has its median near -0.17; the highest 2% begin near 0.51. The full list was thinned out, with the highest values kept by preference.
Let's look at some variants and their measured one-hybrid fitness for binding parS DNA.
MEASUREMENT NAME: one-hybrid fitness for binding parS DNA

INSERT INTO measurements (variant_key, test_result) VALUES
  ('RWQR', '≤ 0.2'),
  ('IFGG', '≤ 0.2'),
  ('NPSA', '≤ 0.2'),
  ('GWDC', '≤ 0.2'),
  ('RHCC', 0.869),
  ('RWQC', 0.73),
  ('RYDR', '≤ 0.2'),
  ('RTYK', '≤ 0.2'),
  ('QVQY', '≤ 0.2'),
  ('WNSC', '≤ 0.2'),
  ('RAFG', 0.978),
  ('WTLF', '≤ 0.2'),
  ('NFDC', '≤ 0.2'),
  ('RWSY', 0.338),
  ('AFNC', '≤ 0.2'),
  ('NELG', '≤ 0.2'),
  ('PRFW', '≤ 0.2'),
  ('RYDT', 0.79),
  ('RTFK', '≤ 0.2'),
  ('RTWN', 0.461),
  ('FDPI', '≤ 0.2'),
  ('RHHC', 0.934),
  ('RMIL', '≤ 0.2'),
  ('RTWT', 0.916),
  ('FLHK', '≤ 0.2'),
  ('RYDF', '≤ 0.2'),
  ('RCPC', 0.698),
  ('RTRT', 0.747),
  ('RSPC', 0.421),
  ('QFRS', '≤ 0.2'),
  ('RMIC', 0.926),
  ('RKQD', '≤ 0.2'),
  ('RKQN', 0.3),
  ('YNSE', '≤ 0.2'),
  ('CHQS', '≤ 0.2'),
  ('RTAM', 0.311),
  ('RYQY', 0.422),
  ('RAFR', '≤ 0.2'),
  ('QYLK', '≤ 0.2'),
  ('RTRD', '≤ 0.2'),
  ('IAGR', '≤ 0.2'),
  ('SLCD', '≤ 0.2'),
  ('RWRH', 0.223),
  ('RKQS', 0.793),
  ('RYQQ', '≤ 0.2'),
  ('AQRA', '≤ 0.2'),
  ('RTYT', 0.952),
  ('RMPP', '≤ 0.2'),
  ('RTWH', 0.254),
  ('RMPC', 0.725),
  ('VNWT', '≤ 0.2'),
  ('FYRR', '≤ 0.2'),
  ('AALR', '≤ 0.2'),
  ('RYHH', 0.213),
  ('RTQM', 0.352),
  ('QAWS', '≤ 0.2'),
  ('RTAG', 1),
  ('RWQQ', '≤ 0.2'),
  ('RHLY', 0.428),
  ('RAFY', 0.499),
  ('RHLK', '≤ 0.2'),
  ('RWRD', '≤ 0.2'),
  ('RKVA', 0.527),
  ('RTQQ', '≤ 0.2'),
  ('KVPK', '≤ 0.2'),
  ('WGLC', '≤ 0.2'),
  ('RTRK', '≤ 0.2'),
  ('WWDC', '≤ 0.2'),
  ('RKKA', 0.846),
  ('TRLI', '≤ 0.2'),
  ('WREM', '≤ 0.2'),
  ('RAAG', 1),
  ('KYTR', '≤ 0.2'),
  ('RMPF', '≤ 0.2'),
  ('QRGN', '≤ 0.2'),
  ('RHCF', '≤ 0.2'),
  ('VHEV', '≤ 0.2');
